For each of the compounds below, state its pKi.
experiment: Binding affinity was measured on opioid receptor delta sites.
Kindly note that pKi refers to -log10 of the concentration in mol/L and answer with the value alone.

For the compound shown here, O=C(Cc1ccc(C(F)(F)F)cc1)N1CCCC[C@H]1CN1CCCC1 , give the reported pKi.
6.00

Try this compound too: CN(C)CC1c2ccccc2CCN1C(=O)Cc1ccc(Cl)c(Cl)c1 (centres undefined)
6.13

----------
assay: Affinity for opioid receptor delta sites
test-readout: pKi
// scale note: pKi = -log10(conc_M); give the bare number

Can you share its pKi? I mean this molecule: O=C(Cc1ccc(Cl)c(Cl)c1)N1CCCC[C@H]1CN1CCCC1
6.00

Repeat for the following molecule: O=C(Cc1ccc(Cl)c(Cl)c1)N1CCc2sccc2C1CN1CCCC1 (stereo unspecified)
6.82

Subsequent entry: O=C(Cc1ccc(Cl)c(Cl)c1)N1CCc2ccsc2C1CN1CCCC1 (stereo unspecified)
6.44
